System: Streptococcus agalactiae
Test: Antimicrobial activity against Streptococcus agalactiae clinical isolates by agar dilution method
Assay type: functional
Decide using MIC50 alone. Strictly below 0.06 µg/mL: True. Equal to or above 0.06 µg/mL: False.

Chemical String	Category
C[C@H]1COc2c(N3CCN(C)CC3)c(F)cc3c(=O)c(C(=O)O)cn1c23.C[C@H]1COc2c(N3CCN(C)CC3)c(F)cc3c(=O)c(C(=O)O)cn1c23.O	False
C[C@@H](O)[C@H]1C(=O)N2C(C(=O)O)=C(S[C@@H]3CN[C@H](C(=O)N(C)C)C3)[C@H](C)[C@H]12	False
CC[C@H]1OC(=O)[C@H](C)[C@@H](O[C@H]2C[C@@](C)(OC)[C@@H](O)[C@H](C)O2)[C@H](C)[C@@H](O[C@@H]2O[C@H](C)C[C@H](N(C)C)[C@H]2O)[C@](C)(O)C[C@@H](C)C(=O)[C@H](C)[C@@H](O)[C@]1(C)O	True
CC[C@H]1OC(=O)[C@H](C)[C@@H](O[C@H]2C[C@@](C)(OC)[C@@H](O)[C@H](C)O2)[C@H](C)[C@@H](O[C@@H]2O[C@H](C)C[C@H](N(C)C)[C@H]2O)[C@](C)(OC)C[C@@H](C)C(=O)[C@H](C)[C@@H](O)[C@]1(C)O	False
CC1(C)S[C@@H]2[C@H](NC(=O)Cc3ccccc3)C(=O)N2[C@H]1C(=O)O	False
CO/N=C(\C(=O)N[C@@H]1C(=O)N2C(C(=O)O)=C(COC(C)=O)CS[C@H]12)c1csc(N)n1	True
CO/N=C(\C(=O)N[C@@H]1C(=O)N2C(C(=O)OCOC(=O)C(C)(C)C)=C(/C=C\c3scnc3C)CS[C@H]12)c1csc(N)n1	True
CC(=N)N1CC[C@H](SC2=C(C(=O)O)N3C(=O)[C@H]([C@@H](C)O)[C@H]3C2)C1	True

# input Is MIC50 of CCC[C@@H]1C[C@@H](C(=O)N[C@@H]([C@H]2O[C@H](SC)[C@H](O)[C@@H](O)[C@H]2O)[C@H](C)Cl)N(C)C1 strictly below 0.06 µg/mL?
# output False
